Can you tell me %Inh for the items I'm about to list?
# Tested on: MAP4K2
# condition_label: concentration: 1 μM,replicates: in singlicate; n = 1;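 also: KINOMEscan kinase panel screen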
Give bare numbers, in %.

>>> print(df.to_string())
                                   compound  system_name  unit_text  test_value
0  Nc1nc(Nc2ccccc2)cc(-c2ccc3c(N)n[nH]c3c2)n1 [GSK2225749]       MAP4K2          %          16
1  Cc1ccc2c(-c3ccncc3)c(-c3ccc(F)cc3)nn2c1.Cl [GW461484]       MAP4K2          %           0
2  Cl.Cl.Nc1nc(-c2ccc3c(N)n[nH]c3c2)cc(N2CCCC(NC(=O)c3ccccc3)C2)n1 (centres unmarked) [GSK2286775]       MAP4K2          %           0
3  COc1ccc(C[C@@H](CN)NC(=O)c2cc(Br)c(-c3ccnc4[nH]ccc34)s2)cc1.Cl.Cl [GSK1389063]       MAP4K2          %          74

Please find the next compound below.
Please give measured %Inh of the following entry: `Cc1cc2cn[nH]c2cc1-c1cccc2c(N)c(C(N)=O)nnc12`
25

---

# Test system: HIPK3
# condition_label: concentration: 1 μM,replicates: in singlicate; n = 1
Can you tell me %Inh for the items I'm about to list?
Numbers only, in %.

Answered examples (3):
>>> print(df.to_string())
                                   molecule  unit_text  test_value
0  CN(C)CCOc1ccc(-c2cc(-c3c[nH]nc3-c3ccccn3)ccn2)cc1          %          16
1  Cl.Oc1cc(-c2nc(-c3ccccc3)[nH]c2-c2ccncc2)ccc1Cl          %           6
2  Cl.Cl.Nc1nc(-c2ccc3c(N)n[nH]c3c2)cc(N2CCCC(NC(=O)c3ccccc3)C2)n1 (stereo not shown)          %          21

Please give measured %Inh of the following entry: `NC(=O)c1cc(-c2ccccc2)cc2c(C3CCNCC3)c[nH]c12`
16

---

Can you tell me %Inh for the items I'm about to list?
# Tested on: PAK4
# condition_label: concentration: 1 μM,replicates: in singlicate; n = 1
Give bare numbers, in %.

                                   compound  property_measured  test_value
0  CCn1c(-c2nonc2N)nc2c(C#CC(C)(C)O)nc(OCCN)cc21.Cl.Cl               %Inh          68
1  Cc1n[nH]c2ccc(-c3cc(OC[C@@H](N)Cc4ccccc4)cnc3-c3ccoc3)cc12.O=C(O)C(F)(F)F.O=C(O)C(F)(F)F               %Inh           0
2  CC(C)N1C(=O)Cc2cc(Nc3ncc(C(F)(F)F)c(NCc4cccc(S(C)(=O)=O)c4)n3)ccc21               %Inh           7
3  Cc1ccc2c(-c3ccncc3)c(-c3ccc(F)cc3)nn2c1.Cl               %Inh           0
4  CCN(CC)CCOc1ccc(Nc2ncc3cc(-c4c(Cl)cccc4Cl)c(=O)n(C)c3n2)cc1               %Inh          53
5  C[C@@H]1CCN(C(=O)CC#N)C[C@@H]1N(C)c1ncnc2[nH]ccc12               %Inh           0
6  Cl.Cl.NC[C@H](CC1CCCCC1)NC(=O)c1cc(Br)c(-c2ccnc3[nH]ccc23)s1               %Inh          12
7  Cc1occc1-c1nc(N)c(OC[C@@H](N)Cc2c[nH]c3ccccc23)cc1-c1cc2c(C)n[nH]c2cn1               %Inh           0
8  C[C@H]1Oc2cc(cnc2N)-c2c(nn(C)c2C#N)CN(C)C(=O)c2ccc(F)cc21               %Inh          14
9  COc1ccc(C[C@@H](CN)NC(=O)c2cc(Br)c(-c3ccnc4[nH]ccc34)s2)cc1.Cl.Cl               %Inh          89

For the 3 compounds below, give their %Inh values.
1. Cl.Cl.Nc1nc(-c2ccc3c(N)n[nH]c3c2)cc(N2CCCC(NC(=O)c3ccccc3)C2)n1 (centres unmarked)
2. CCN(CC)CCCCNc1ncc2cc(-c3c(Cl)cccc3Cl)c(NC(=O)NC(C)(C)C)nc2n1
3. O=C(NCCCN1CCOC1=O)c1cnc(NCc2cc(Cl)ccc2Cl)nc1NC1CCCC1

1: 0; 2: 0; 3: 18

For the 2 compounds below, give their %Inh values.
1. Cc1ccc(-n2nc(C(C)(C)C)cc2NC(=O)Nc2ccc(OCCN3CCOCC3)c3ccccc23)cc1
2. C=CC(=O)Nc1cc2c(Nc3ccc(F)c(Cl)c3)ncnc2cc1OCCCN1CCOCC1

10
15

For the 2 compounds below, give their %Inh values.
1. O=C(NCCNc1ccnc(NCc2ccc(F)cc2)n1)c1cc2ccccc2s1
2. CNC(=O)c1ccccc1Sc1ccc2c(/C=C/c3ccccn3)n[nH]c2c1

1: 0; 2: 2

---

Can you tell me %Inh for the items I'm about to list?
# Test system: TSSK3
# condition_label: concentration: 1 μM,replicates: in singlicate; n = 1
One number for each entry, in %.

>>> print(df.to_string())
                                   molecule  unit_text  test_value
0  Cc1occc1-c1nc(N)c(OC[C@@H](N)Cc2c[nH]c3ccccc23)cc1-c1cc2c(C)n[nH]c2cn1          %           5
1  C[C@@H](Oc1cc(-c2cnn(C3CCNCC3)c2)cnc1N)c1c(Cl)ccc(F)c1Cl          %           0
2  COc1ccc(C[C@@H](CN)NC(=O)c2cc(Br)c(-c3ccnc4[nH]ccc34)s2)cc1.Cl.Cl          %          12
3  Cl.Cl.Nc1nc(-c2ccc3c(N)n[nH]c3c2)cc(N2CCCC(NC(=O)c3ccccc3)C2)n1 (centres unmarked)          %          10
4  C=CC(=O)Nc1cc2c(Nc3ccc(F)c(Cl)c3)ncnc2cc1OCCCN1CCOCC1          %          47
5  C[C@@H]1CCN(C(=O)CC#N)C[C@@H]1N(C)c1ncnc2[nH]ccc12          %           0
6  Cc1ccc2c(-c3ccncc3)c(-c3ccc(F)cc3)nn2c1.Cl          %           9

Please find the next molecule below.
Please give measured %Inh of the following entry: CN(C)CC(O)COc1ccc(Nc2nccc(-c3cnn4nc(N5CCOCC5)ccc34)n2)cc1 (centres unmarked)
65

---

# System: NEK5
# condition_label: concentration: 1 μM,replicates: in singlicate; n = 1
Can you tell me %Inh for the items I'm about to list?
One number for each entry, in %.

Answered examples (4):
>>> df
                                 mol_smiles  test_value
0  O=C(NCCCN1CCOC1=O)c1cnc(NCc2cc(Cl)ccc2Cl)nc1NC1CCCC1           0
1  O=C(NCCNc1ccnc(NCc2ccc(F)cc2)n1)c1cc2ccccc2s1          85
2  Nc1nc(Nc2ccccc2)cc(-c2ccc3c(N)n[nH]c3c2)n1           0
3  Cc1occc1-c1nc(N)c(OC[C@@H](N)Cc2c[nH]c3ccccc23)cc1-c1cc2c(C)n[nH]c2cn1          29

Please give measured %Inh of the following entry: `Cc1ccc2c(-c3ccncc3)c(-c3ccc(F)cc3)nn2c1.Cl`
4

---

Can you tell me %Inh for the items I'm about to list?
# Test system: SIK2
# condition_label: concentration: 1 μM,replicates: in singlicate; n = 1
Give bare numbers, in %.

Answered examples (8):
>>> df
                                 mol_smiles  test_value
0  NC(=O)c1cc(-c2ccccc2)cc2c(C3CCNCC3)c[nH]c12          59
1  CCn1c(-c2nonc2N)nc2c(C#CC(C)(C)O)nc(OCCN)cc21.Cl.Cl           0
2   CC(C)Nc1cc(-c2ccc3c(N)n[nH]c3c2)nc(N)n1           0
3  O=C(NCCNc1ccnc(NCc2ccc(F)cc2)n1)c1cc2ccccc2s1           0
4  O=C(NCCCN1CCOC1=O)c1cnc(NCc2cc(Cl)ccc2Cl)nc1NC1CCCC1          10
5  C=CC(=O)Nc1cc2c(Nc3ccc(F)c(Cl)c3)ncnc2cc1OCCCN1CCOCC1           0
6  Cc1ccc2c(-c3ccncc3)c(-c3ccc(F)cc3)nn2c1.Cl           0
7  CN(C)CCOc1ccc(-c2cc(-c3c[nH]nc3-c3ccccn3)ccn2)cc1          15

Please find the next molecule below.
Please give measured %Inh of the following entry: `Cl.Cl.NC[C@H](CC1CCCCC1)NC(=O)c1cc(Br)c(-c2ccnc3[nH]ccc23)s1`
0
